What IC50 was measured for each of the following?
- Measurement Target: recombinant human CYP17 enzyme (Homo sapiens (Human), UniProt P05093)
- Sequence (P05093 whole entry): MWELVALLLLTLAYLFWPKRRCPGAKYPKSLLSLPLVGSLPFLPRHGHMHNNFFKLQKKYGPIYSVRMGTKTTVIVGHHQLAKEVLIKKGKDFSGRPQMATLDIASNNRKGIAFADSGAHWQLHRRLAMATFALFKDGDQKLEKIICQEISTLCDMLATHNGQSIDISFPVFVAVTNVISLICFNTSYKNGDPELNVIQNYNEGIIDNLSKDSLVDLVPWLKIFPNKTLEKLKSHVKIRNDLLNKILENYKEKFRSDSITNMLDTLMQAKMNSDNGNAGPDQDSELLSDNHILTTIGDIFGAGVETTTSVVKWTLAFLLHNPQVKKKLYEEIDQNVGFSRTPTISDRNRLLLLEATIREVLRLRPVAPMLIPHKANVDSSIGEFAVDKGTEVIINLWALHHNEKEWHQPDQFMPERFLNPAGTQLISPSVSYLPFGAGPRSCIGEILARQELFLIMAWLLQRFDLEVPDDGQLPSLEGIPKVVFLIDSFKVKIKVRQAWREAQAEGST
- Assay Info: Cytochrome P450, 17-20 lyase (CYP17-lyase) assay, tritiated acetic acid release from 17-α-hydroxy pregnenolone [21-3H]
- Type: biochemical
- Experimental Parameters: human CYP17, substrate 0.25 μM; read-out: Lyase IC 50 nM Human/Rat (Human)
Counter-ions that a name gives are not always drawn.
Give bare numbers, in nM.

Sample answers from the record:
Molecule: O=C1N(c2ccc3ncsc3c2)CCN1c1cnccc1C(F)F [Example 125A]
Endpoint Name: IC50
Units: nM
Val: 17
--
Molecule: Cc1ccncc1-n1ccn(-c2ccc(F)c(C(F)F)c2)c1=O [Example 91B]
Endpoint Name: IC50
Units: nM
Val: 22
--
Molecule: COc1ccc(N2CCN(c3cnccc3C)C2=O)cc1F [Example 53A]
Endpoint Name: IC50
Units: nM
Val: 136
--
Molecule: Cc1ccncc1N1CCN(c2ccc3ncccc3c2)C1=O [Example 52A]
Endpoint Name: IC50
Units: nM
Val: 96
--
Molecule: Cc1cc(N2CCN(c3cnccc3C)C2=O)ccc1F [Example 59A]
Endpoint Name: IC50
Units: nM
Val: 17
--
Molecule: Cc1ccncc1N1CCN(c2ccc(C(F)(F)F)cc2)C1=O [Example 50A]
Endpoint Name: IC50
Units: nM
Val: 51

Go through the list and state IC50 for each entry.
1. Cc1ccncc1N1CCN(c2ccc3ncsc3c2)C1=O [Example 16A]
2. Cc1ccncc1N1CCN(c2ccc3c(C)n[nH]c3c2)C1=O [Example 102A]
3. Cc1ccncc1N1CCN(c2ccc3[nH]ncc3c2)C1=O [Example 28A]
4. Cc1ccncc1N1CCN(c2ccc3[nH]nnc3c2)C1=O [Example 141A, Hydrochloride]
5. Cc1ccncc1N1CCN(c2ccnc(N3CCCC3)c2)C1=O [Example 85A]
6. Cc1ccncc1N1CCN(c2ccc3c(c2)CCO3)C1=O [Example 51A]
7. N#Cc1ccncc1N1CCN(c2ccc3ncsc3c2)C1=O [Example 129A]

Result:
6
7.5
4
13
1260
14
202

---

- Measurement Target: rat CYP17 lyase (Rattus norvegicus (Rat), UniProt P11715)
- Sequence (P11715 whole entry): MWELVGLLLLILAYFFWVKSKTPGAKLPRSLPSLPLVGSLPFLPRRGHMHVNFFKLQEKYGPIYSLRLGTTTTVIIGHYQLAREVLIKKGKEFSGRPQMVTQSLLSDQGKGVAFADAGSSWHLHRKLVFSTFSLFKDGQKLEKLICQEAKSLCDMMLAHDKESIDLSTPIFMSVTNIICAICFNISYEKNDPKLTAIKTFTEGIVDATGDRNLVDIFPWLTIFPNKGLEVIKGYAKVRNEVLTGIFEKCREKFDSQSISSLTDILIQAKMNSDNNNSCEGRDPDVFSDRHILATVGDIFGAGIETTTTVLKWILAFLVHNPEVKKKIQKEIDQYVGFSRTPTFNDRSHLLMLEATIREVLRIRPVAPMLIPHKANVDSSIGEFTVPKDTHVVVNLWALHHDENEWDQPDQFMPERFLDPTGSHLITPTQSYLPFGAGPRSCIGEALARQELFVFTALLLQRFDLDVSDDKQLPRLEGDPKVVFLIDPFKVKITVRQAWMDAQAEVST
- Assay Info: rat CYP 17 Lyase model, rat testes microsomes as the source
- Type: biochemical
- Experimental Parameters: 100 nM compound; read-out: rCYP17 Lyase % Inh @ 100 nM
Mark class 0 for inhibition at 0.1 µM values under 90%, and class 1 for everything at or above.

As a guide, the following entries are already answered.
Molecule: Cc1c(N2CCN(c3cccnc3)C2=O)sc2ccc(F)cc12 [Example 6A]
Measurement Target: rat CYP17 lyase (Rattus norvegicus (Rat), UniProt P11715)
Label Class: class 0
//
Molecule: Cc1ccncc1N1CCN(c2ccc3ncccc3c2)C1=O [Example 52A]
Measurement Target: rat CYP17 lyase (Rattus norvegicus (Rat), UniProt P11715)
Label Class: class 1
//
Molecule: COc1ccc2cc(N3CCN(c4cccnc4)C3=O)ccc2c1 [Example 3A]
Measurement Target: rat CYP17 lyase (Rattus norvegicus (Rat), UniProt P11715)
Label Class: class 0

Task: // inclusive: inhibition at 0.1 µM at least 90%? input: Cc1ccncc1N1CCN(c2ccc3ncsc3c2)C1=O [Example 16A]
Result: class 1

---

- Measurement Target: rat CYP17 lyase (Rattus norvegicus (Rat))
- Assay Info: rat CYP 17 Lyase model, rat testes microsomes as the source
- Type: biochemical
- Experimental Parameters: rat testes microsomes, substrate 0.5 μM; read-out: Lyase IC 50 nM Human/Rat (Rat)
Endpoint Name: IC50 (nM)
Answers are plain numbers, in nM.

Compound: Cc1cccc(N2CCN(c3cnccc3C)C2=O)c1 [Example 55A]
Units: nM
IC50: 7
//
Compound: Cc1ccncc1N1CCN(c2ccc3ncsc3c2)C1=O [Example 16A]
Units: nM
IC50: 5
//
Compound: Cc1ccncc1N1CCN(c2ccc3nc(Cl)cc(C)c3c2)C1=O [Example 21A]
Units: nM
IC50: 5
//
Compound: COc1cc(N2CCN(c3cnccc3C)C2=O)ccn1 [Example 72A]
Units: nM
IC50: 10

Here is the next item to consider.
Task: Input CCN1C(=O)CCc2cc(N3CCN(c4cnccc4C)C3=O)ccc21 [Example 17A] , output reported IC50.
Result: 21

---

- Measurement Target: recombinant human CYP17 enzyme (Homo sapiens (Human), UniProt P05093)
- Assay Info: Cytochrome P450, 17-20 lyase (CYP17-lyase) assay, tritiated acetic acid release from 17-α-hydroxy pregnenolone [21-3H]
- Format: biochemical
- Experimental Parameters: human CYP17, substrate 0.25 μM; read-out: Lyase IC 50 nM Human/Rat (Human)
The label is 1 for IC50 below 20 nM and -1 for IC50 equal to or exceeding 20 nM.

Reference set (3 entries):
Compound: Cc1ccncc1N1CCN(c2ccc3c(c2)CCC3)C1=O [Example 138A]
Label Class: 1

Compound: Cc1ccncc1N1CCN(c2ccc(F)c(C(F)F)c2)C1=O [Example 91A]
Label Class: 1

Compound: COc1cccc(N2CCN(c3cnccc3C)C2=O)c1 [Example 56A]
Label Class: -1

Task: A record lists Cc1ccncc1N1CCN(c2ccnc(N)c2)C1=O [Example 76A] . Is its IC50 below 20 nM?
Result: -1

---

- Measurement Target: recombinant human CYP17 enzyme (Homo sapiens (Human), UniProt P05093)
- Assay Info: Cytochrome P450, 17-20 lyase (CYP17-lyase) assay, tritiated acetic acid release from 17-α-hydroxy pregnenolone [21-3H]
- Assay type: biochemical
- Experimental Parameters: human CYP17, substrate 0.25 μM; read-out: Lyase IC 50 nM Human/Rat (Human)
For each record, write down the corresponding IC50.
Give bare numbers, in nM.

Below are worked cases with known answers.
Compound: Cc1cn2cc(N3CCN(c4cnccc4C)C3=O)ccc2n1 [Example 104A]
Units: nM
IC50: 1990

Compound: Cc1ccncc1N1CCN(c2ccc(C#N)c(Cl)c2)C1=O [Example 112A]
Units: nM
IC50: 28

Compound: Cc1ccncc1N1CCN(c2ccc3[nH]nc(N)c3c2)C1=O [Example 118A]
Units: nM
IC50: 17

Compound: Cc1ccncc1N1CCN(c2ccn3c(Cl)cnc3c2)C1=O [Example 145A]
Units: nM
IC50: 31

Compound: Cc1ccncc1N1CCN(c2ccc(Cl)cc2)C1=O [Example 38A]
Units: nM
IC50: 70

Compound: Cc1ccncc1N1CCN(c2ccc3oncc3c2)C1=O [Example 113A]
Units: nM
IC50: 230

Compound: Cc1ccncc1N1CCN(c2ccc3scnc3c2)C1=O [Example 62A]
Units: nM
IC50: 426

Compound: Cc1ccncc1N1CCN(c2csc3ccccc23)C1=O [Example 109A]
Units: nM
IC50: 158

Value sought for every listed compound: IC50.
1. Cc1cc(N2CCN(c3cnccc3C)C2=O)ccn1 [Example 100A]
2. Cc1ccncc1N1CCN(c2ccc(C(F)(F)F)s2)C1=O [Example 155A]

Result:
1. 46
2. 2.7

---

- Measurement Target: recombinant human CYP17 enzyme (Homo sapiens (Human))
- Assay Info: Cytochrome P450, 17-20 lyase (CYP17-lyase) assay, tritiated acetic acid release from 17-α-hydroxy pregnenolone [21-3H]
- Assay type: biochemical
- Experimental Parameters: human CYP17, substrate 0.25 μM; read-out: Lyase IC 50 nM Human/Rat (Human)
Counter-ions that a name gives are not always drawn.
Checkbox rule: IC50 lower than 20 nM = t; IC50 not lower than 20 nM = f.

# example entries with known answers
Compound: Cc1ccncc1N1CCN(c2ccnc(C(F)(F)F)c2)C1=O [Example 148A]
Label Class: f
//
Compound: Nc1ccncc1N1CCN(c2ccc3ncsc3c2)C1=O [Example 152A, Hydrochloride Salt]
Label Class: t
//
Compound: Cc1ccncc1N1CCN(c2ccc3occ(C)c3c2)C1=O [Example 29A]
Label Class: t
//
Compound: Cc1ccncc1N1CCN(c2ccc(Cl)c(F)c2)C1=O [Example 54A]
Label Class: t

Now look at this one.
Task: Consider Cc1ccncc1N1CCN(c2ccc3c(C4CC4)n[nH]c3c2)C1=O [Example 161A] . Does its IC50 lie strictly below 20 nM?
Result: f

---

- Measurement Target: rat CYP17 lyase (Rattus norvegicus (Rat))
- Assay Info: rat CYP 17 Lyase model, rat testes microsomes as the source
- Format: biochemical
- Experimental Parameters: 100 nM compound; read-out: rCYP17 Lyase % Inh @ 100 nM
- Method: For routine screening, the assay was set up with 16 μg of enzyme in 50 μL reaction volume. 17α-hydroxy pregnenolone [21-3H] was added to a final concentration of 0.25 μM. NADPH is used at a final concentration of 4.2 mM. […] The radioactivity was measured in a 1450 MicroBeta TriLux™ scintillation counter from Wallac-Perkin Elmer®, USA. […] Each tube was counted for 1 minute. […] Percent lyase activity in presence of inhibitor was calculated using the formula given below. […]
Endpoint Name: inhibition at 0.1 µM (%)
Answers are plain numbers, in %.

Example entries and their recorded answers appear below.
Molecule: COc1cncc(N2CCN(c3cnccc3C)C2=O)c1 [Example 32A]
Val: 73
//
Molecule: Cc1ccncc1N1CCN(c2ccc3ccccc3c2)C1=O [Example 14A]
Val: 102

For every listed record, write down its inhibition at 0.1 µM.
1. O=C1N(c2cccnc2)CCN1c1ccc2ncsc2c1 [Example 4A]
2. O=C1N(c2cccnc2)CCN1c1ccc2ccccc2c1 [Example 1A]
3. Cc1ccncc1N1CCN(c2ccsc2)C1=O [Example 31A]
4. Cc1ccncc1N1CCN(c2ccc3nc(Cl)cc(C)c3c2)C1=O [Example 21A]
5. CC(O)c1ccncc1N1CCN(c2ccc3ncsc3c2)C1=O (stereo not shown) [Example 195A]
6. Cc1ccncc1N1CCN(c2ccc3occ(C)c3c2)C1=O [Example 29A]
7. O=C1N(c2cccnc2)CCN1c1ccc2c(c1)CC/C2=N\O [Example 12A]

Result:
1: 59; 2: 84; 3: 74; 4: 98; 5: 8; 6: 98; 7: 17

Task: Indicate its recorded inhibition at 0.1 µM; the molecule in question is O=C1N(c2cncc(F)c2)CCN1c1ccc2ccccc2c1 [Example 81A]
Result: 82
